# ASSAY COMMENT: recombinant barcode read abundance after kanamycin selection (control-corrected) (log10(CPM+1)); higher = more efficient recombination; sequences stand for … in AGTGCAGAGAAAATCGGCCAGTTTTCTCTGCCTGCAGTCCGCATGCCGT…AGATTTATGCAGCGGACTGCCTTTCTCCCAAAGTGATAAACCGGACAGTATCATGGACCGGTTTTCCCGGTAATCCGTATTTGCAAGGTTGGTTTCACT; site = the 11-nt target
Kindly note that classification relies on recombinant barcode read abundance (log10) with these boundaries: low: < 0.1; mid: ≥ 0.1 and < 0.3; high: ≥ 0.3

1) CTGATCCCTTGGGTTCTAACCTGTTGCGG (site CTGCTCCCTCC): low
2) CGAAAATCTTGGGTTCTAACCTGTTGCCT (site CGAAAATCTAG): low

Ask: Sort TTCGCGCCTTGGGTTCTAACCTGTTGCCT (site TTCCCGCCTAG) into one of the categories.
Result: mid

Ask: Sort CATAGCCCTTGGGTTCTAACCTGTTGCAT (site CATAGGCCTAT) into one of the categories.
Result: mid

Ask: Sort TGACCCTCTTGGGTTCTAACCTGTTGCCT (site CGACCCTCTAG) into one of the categories.
Result: high

Ask: Sort GAAGTCGCTTGGGTTCTAACCTGTTGCCT (site GAAGACGCTAG) into one of the categories.
Result: mid

Ask: Sort ACATAAGCTTGGGTTCTAACCTGTTGCCT (site ACATAAGCTAG) into one of the categories.
Result: high

Ask: Sort TCCTACTCTTGGGTTCTAACCTGTTGCCG (site TCCTACTCTCG) into one of the categories.
Result: high

Ask: Sort TTGGCCGCTTGGGTTCTAACCTGTTGCCT (site TTGGACGCTAG) into one of the categories.
Result: mid

---

# ASSAY COMMENT: recombinant barcode read abundance after kanamycin selection (control-corrected) (log10(CPM+1)); higher = more efficient recombination; sequences stand for … in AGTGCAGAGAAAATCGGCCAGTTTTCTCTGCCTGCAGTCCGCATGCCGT…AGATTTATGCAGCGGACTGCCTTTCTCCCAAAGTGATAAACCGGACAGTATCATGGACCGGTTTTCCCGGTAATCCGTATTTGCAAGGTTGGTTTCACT; site = the 11-nt target
Binary classification by recombinant barcode read abundance (log10), with 0.3 as an inclusive lower bound for Y; all other cases are N.

Ask: Decide: is the reported value of recombinant barcode read abundance (log10) for TAGAAGGCTTGGGTTCTAACCTGTTGCAT (site TAGAAGGCTAC) equal to or greater than 0.3?
Result: N

Ask: Decide: is the reported value of recombinant barcode read abundance (log10) for ACTGCGTCTTGGGTTCTAACCTGTTGCCT (site ACTCCGTCTAG) equal to or greater than 0.3?
Result: N

Ask: Decide: is the reported value of recombinant barcode read abundance (log10) for AGGCATCCTTGGGTTCTAACCTGTTGCCT (site AAGCATCCTAG) equal to or greater than 0.3?
Result: Y

Ask: Decide: is the reported value of recombinant barcode read abundance (log10) for TGCGCAACTTGGGTTCTAACCTGTTGCCT (site TGCGCCACTAG) equal to or greater than 0.3?
Result: N

Ask: Decide: is the reported value of recombinant barcode read abundance (log10) for TACTTCTCTTGGGTTCTAACCTGTTGCCT (site TACTTCTCTAG) equal to or greater than 0.3?
Result: Y

---

# ASSAY COMMENT: recombinant UMI read abundance after kanamycin selection (control-corrected) (log10(CPM+1)); higher = more efficient recombination; extreme values may be limits of the assay; sequences stand for … in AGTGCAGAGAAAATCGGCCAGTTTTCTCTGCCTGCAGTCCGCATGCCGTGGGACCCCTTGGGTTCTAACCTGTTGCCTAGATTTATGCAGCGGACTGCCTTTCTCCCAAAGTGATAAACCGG…AGGTTGGTTTCACT; site = the 11-nt donor
REPORTED METRIC: recombinant UMI read abundance (log10)
Give bare numbers.

1) CCGGAAACATGGACCGGTTTTCCCGGTAATCCGTATTTGCA (site CCGGAAACTTG): 0.135
2) CGGAATCCATGGACCGGTTTTCCCGGTAATCCGTATTTGTT (site CGGTAGCCTAA): 0.0806
3) CAGTTTACATGGACCGGTTTTCCCGGTAATCCGTATTTGCT (site CCGTTTACTAG): 0.978

For every record below, what is its recombinant UMI read abundance (log10)?
1. GCTTGTTCATGGACCGGTTTTCCCGGTAATCCGTATTTGCT (site GCTTGTTCTAG)
2. AACCGTCCATGGACCGGTTTTCCCGGTAATCCGTATTTGAT (site TACCGTCCTAT)

Result:
1: 1.84; 2: 0.0405

---

# ASSAY COMMENT: recombinant barcode read abundance after kanamycin selection (control-corrected) (log10(CPM+1)); higher = more efficient recombination; sequences stand for … in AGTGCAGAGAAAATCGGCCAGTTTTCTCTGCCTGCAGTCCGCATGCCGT…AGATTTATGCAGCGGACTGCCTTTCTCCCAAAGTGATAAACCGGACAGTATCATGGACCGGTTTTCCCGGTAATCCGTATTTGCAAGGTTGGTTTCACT; site = the 11-nt target
Binary classification by recombinant barcode read abundance (log10), with 0.2 as an inclusive lower bound for T; all other cases are F.

Known results for sequences:
1) TAGGACACTTGGGTTCTAACCTGTTGCGT (site TAGGAGACTAC): F
2) TCTCATTCTTGGGTTCTAACCTGTTGCGT (site TCTTATTCTAC): F
3) CTAGTAGCTTGGGTTCTAACCTGTTGCGG (site CTAGTAGCTCC): T
4) TCGCGTCCTTGGGTTCTAACCTGTTGCAA (site TCGCGTCCTTT): T
5) CCACGAGCTTGGGTTCTAACCTGTTGCGG (site CGACGAGCTCC): F

Ask: Decide: is the reported value of recombinant barcode read abundance (log10) for TACTGCTCTTGGGTTCTAACCTGTTGCTT (site TACCGCTCTAA) equal to or greater than 0.2?
Result: T

Ask: Decide: is the reported value of recombinant barcode read abundance (log10) for ACGGGTACTTGGGTTCTAACCTGTTGCCT (site ACTGGTACTAG) equal to or greater than 0.2?
Result: F

---

Record form. Attribute: recombinant barcode read abundance (log10). Fill in for each entry.
# ASSAY COMMENT: recombinant barcode read abundance after kanamycin selection (control-corrected) (log10(CPM+1)); higher = more efficient recombination; sequences stand for … in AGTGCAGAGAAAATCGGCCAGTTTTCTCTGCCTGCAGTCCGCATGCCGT…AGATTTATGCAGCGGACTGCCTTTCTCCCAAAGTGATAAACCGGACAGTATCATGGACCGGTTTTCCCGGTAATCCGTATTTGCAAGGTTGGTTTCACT; site = the 11-nt target

Here's what some known entries look like.
1. TGTTAGACTTGGGTTCTAACCTGTTGCCT (site TGTTAGTCTCG): 0.113
2. TCCACATCTTGGGTTCTAACCTGTTGCCT (site TCCACAACTAG): 0.0262
3. GACCGTCCTTGGGTTCTAACCTGTTGCGT (site GACCGTCCTAG): 0.573
4. GGCAGGTCTTGGGTTCTAACCTGTTGCTT (site GGCAGGTCTAA): 0.795
5. GAATATTCTTGGGTTCTAACCTGTTGCCT (site GACTATTCTAG): 0.0547

For every record below, what is its recombinant barcode read abundance (log10)?
1. GGCCCCTCTTGGGTTCTAACCTGTTGCCG (site GGCCCCTCTCG)
2. CACGCGCCTTGGGTTCTAACCTGTTGCGG (site CACGCGCCTCC)

Result:
1. 1.8
2. 1.84

For every record below, what is its recombinant barcode read abundance (log10)?
1. GTGTGTCCTTGGGTTCTAACCTGTTGCAT (site GTGTGTCCTAT)
2. GGTTAGTCTTGGGTTCTAACCTGTTGCCG (site ACGGCTACTAA)
3. GATGTACCTTGGGTTCTAACCTGTTGCCT (site AATGTACCTAG)

Result:
1.7
0.147
0.984

---

Record form. Attribute: recombinant barcode read abundance (log10). Fill in for each entry.
# ASSAY COMMENT: recombinant barcode read abundance after kanamycin selection (control-corrected) (log10(CPM+1)); higher = more efficient recombination; sequences stand for … in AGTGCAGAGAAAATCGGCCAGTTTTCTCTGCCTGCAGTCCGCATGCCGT…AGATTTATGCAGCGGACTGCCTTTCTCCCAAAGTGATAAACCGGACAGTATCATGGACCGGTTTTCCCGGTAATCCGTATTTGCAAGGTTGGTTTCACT; site = the 11-nt target
Numbers only.

Here's what some known entries look like.
1) AGAGTAGCTTGGGTTCTAACCTGTTGCTA (site CTCCCGACTGC): 0.0353
2) TTAGGGACTTGGGTTCTAACCTGTTGCCT (site TTAGGGTCTAG): 0.108
3) GGCCGAACTTGGGTTCTAACCTGTTGCCT (site AGCCGAACTAG): 0.112
4) GGACGTCCTTGGGTTCTAACCTGTTGCCT (site GGACGGCCTAG): 0.0468
5) AGTAATTCTTGGGTTCTAACCTGTTGCCT (site AGTAATTCTAG): 0.454
6) TACCGGCCTTGGGTTCTAACCTGTTGCCT (site TACCGGCCTAG): 0.141
7) TGAGATTCTTGGGTTCTAACCTGTTGCAT (site TGAGATTCTAT): 1.55
8) AGGTCCTCTTGGGTTCTAACCTGTTGCTT (site AGGTCCTCTAG): 0.954

For every record below, what is its recombinant barcode read abundance (log10)?
1. GAAACTCCTTGGGTTCTAACCTGTTGCCT (site GAAACTCCTAG)
2. AAGTGTCCTTGGGTTCTAACCTGTTGCAT (site AAGTTTCCTAT)

Result:
[0.352, 0.0208]

The reported measurements were obtained from the supplement of paper PMC11208160.
